# system_tested: alkaline phosphatase, placental type (Homo sapiens)
# experiment_summary: PLAP enzyme inhibitors, dose response, selectivity assay for mouse IAP inhibitor project, biochemical, uHTS hits (AID 488879)
# condition_notes: purified human placental alkaline phosphatase, enzymatic inhibition
Calls of active or inactive are those of the source. No rule for the calls is given here.
Lab note: assign the record to one of T = active, F = inactive

compound: Cc1ccc(CNC(=S)NC2CCC(C(C)(C)C)CC2)cc1 (stereo unspecified)
system_tested: alkaline phosphatase, placental type (Homo sapiens)
cat: F

INPUT: Status in this test for CCN1C(=O)/C(=C2\SC(=S)N(NC(=O)c3ccccc3O)C2=O)c2ccccc21 ?
OUTPUT: F

INPUT: Returns: the outcome recorded for Oc1cc(O)c2c(c1)O[C@H](c1ccc(O)c(O)c1)[C@@H](O)C2 in this assay.
OUTPUT: F

INPUT: # lookup: test call for O=C1/C(=C/c2ccc(O)c(O)c2)Oc2cc(O)ccc21
OUTPUT: T

INPUT: Assay result, entry O=C(NC1CCCCC1)Oc1cc2oc(=O)sc2cc1Cl — outcome?
OUTPUT: T

INPUT: Please share the test call associated with O=C(NN1C(=O)/C(=C/c2ccc(O)cc2)SC1=S)c1ccccc1O .
OUTPUT: F

###

# system_tested: alkaline phosphatase, placental type (Homo sapiens)
# experiment_summary: PLAP enzyme inhibitors, dose response, selectivity assay for mouse IAP inhibitor project, biochemical, uHTS hits (AID 488879)
# condition_notes: purified human placental alkaline phosphatase, enzymatic inhibition
The source made the active and inactive calls. No rule for the calls is given here.
Pick one and only one: active, inactive

smiles_input: CCOC(=O)c1ccc(N2CCN(c3ccccc3F)CC2)c(NC(=O)Nc2ccccc2)c1
system_tested: alkaline phosphatase, placental type (Homo sapiens)
cat: inactive
//
smiles_input: CCOc1ccc(S(=O)(=O)Nc2ccc(O)c(Sc3ncn[nH]3)c2)cc1
system_tested: alkaline phosphatase, placental type (Homo sapiens)
cat: active
//
smiles_input: Oc1ccc(-c2csc(Nc3cccc4ccccc34)n2)cc1O
system_tested: alkaline phosphatase, placental type (Homo sapiens)
cat: inactive

INPUT: Status in this test for COc1cc(/C=C/C(O)=C/C(=O)/C=C/c2ccc(O)cc2)ccc1O ?
OUTPUT: inactive

INPUT: Please state the recorded outcome for this molecule: O=C1/C(=C\c2cccc(O)c2O)SC(=S)N1Cc1ccccc1
OUTPUT: inactive

INPUT: How was C#CCOCCOCCOCCNc1nc(N2CCN(C(=O)CCCCCCCCCCNC(=O)Cn3cc(C[C@@H](C)O)nn3)CC2)nc(N2CCN(C(=O)CCCCCCCCCCNC(=O)[C@H](CCCCN)n3cc(C[C@@H](C)CC)nn3)CC2)n1 classified in this test?
OUTPUT: inactive

INPUT: Short answer needed: outcome of this test for O=C(N/N=C/c1cccnc1)c1cc(O)c(O)c(O)c1 ?
OUTPUT: inactive

INPUT: Returns: the outcome recorded for N#CC(C#N)=Cc1ccc(O)c(O)c1 in this assay.
OUTPUT: inactive

INPUT: Can you look up the reported call for Cn1nc([N+](=O)[O-])nc1S(C)(=O)=O for me?
OUTPUT: inactive

INPUT: Test call for this molecule, please: Cc1cc(O)c(Sc2ncn[nH]2)cc1NS(=O)(=O)c1ccc(Cl)cc1
OUTPUT: inactive

###

# system_tested: alkaline phosphatase, placental type (Homo sapiens)
# experiment_summary: PLAP enzyme inhibitors, dose response, selectivity assay for mouse IAP inhibitor project, biochemical, uHTS hits (AID 488879)
# condition_notes: purified human placental alkaline phosphatase, enzymatic inhibition
Active and inactive are the calls of the source. The rule behind the calls is not given here.
value_type: IC50

compound: Cc1ccc(S(=O)(=O)Nc2ccc(O)c(Sc3ncn[nH]3)c2)cc1
IC50: > 100 µM (inactive)
//
compound: COc1cc(/C=N/N2C(=O)CSC2=S)ccc1O
IC50: > 100 µM (inactive)
//
compound: O=c1[nH]c2ccc(S(=O)(=O)N3CCCCC3)cc2o1
IC50: > 100 µM (inactive)
//
compound: CN1C(=O)/C(=C/C=C/c2ccco2)C(=O)NC1=S
IC50: 24.4 µM
//
compound: Cc1cc(Cl)ccc1NC(=S)NCCC(c1ccccc1)c1ccccc1
IC50: > 100 µM (inactive)

Each of the following entries comes with a recorded value; kindly state IC50 for each.
1. COc1ccc(Cl)cc1NC(=S)NCCC(c1ccccc1)c1ccccc1
2. Cc1c(Cl)cccc1NC(=S)NCCC(c1ccccc1)c1ccccc1
3. CCOc1ccc(S(=O)(=O)Nc2cc(Sc3ncn[nH]3)c3oc(=O)sc3c2)cc1
4. Clc1ccc(C(c2ccc(Cl)cc2)n2cc[n+](CC(OCc3ccc(Cl)cc3Cl)c3ccc(Cl)cc3Cl)c2)cc1 (configuration not stated)
5. O=C1CNC(=S)N1CCc1ccc(O)c(O)c1
6. O=S(=O)(c1ccc(NC(=S)N/N=C/c2ccc(O)c(O)c2)cc1)N1CCOCC1
7. CCOc1ccccc1CNC(=O)CCNS(=O)(=O)c1ccc2[nH]c(=O)oc2c1

OUTPUT:
1. 39.4 µM
2. > 100 µM (inactive)
3. > 100 µM (inactive)
4. > 100 µM (inactive)
5. > 100 µM (inactive)
6. 2.35 µM
7. > 100 µM (inactive)

Value sought for every listed compound: IC50.
1. CCOc1ccccc1N1CCN(S(=O)(=O)c2ccc3c4c(cccc24)C(=O)N3)CC1
2. CCn1cc(CN2CCC(C(=O)Nc3cccc(-c4cccc(Cl)c4)c3)CC2)c(C)n1
3. FC(F)Oc1ccc(NC(=S)NC2CCSc3ccccc32)cc1 (configuration not stated)
4. O=C1N=c2ccccc2=C1c1sc(=S)n(NC(=O)c2ccccc2)c1O
5. O=C(CCN1C(=O)/C(=C/c2ccco2)SC1=S)Nc1ccc(O)cc1C(=O)O
6. O=C(O)CC(C(=O)O)N1C(=O)/C(=C/C=C/c2ccco2)SC1=S (configuration not stated)
7. O=C(O)CCCN1C(=O)/C(=C/C=C/c2ccco2)SC1=S

OUTPUT:
1. > 100 µM (inactive)
2. > 100 µM (inactive)
3. > 100 µM (inactive)
4. 5.31 µM
5. > 100 µM (inactive)
6. > 100 µM (inactive)
7. > 100 µM (inactive)
